Values of pIC50 for Protein deacetylase HDAC6 (Homo sapiens), collected from a number of published sources:
pIC50: −log10 of the molar value.

**Q:** For Cn1cccc1C(=O)N1CCc2cc(C(=O)NO)sc2C1 , what is its reported pIC50?
**A:** > 7.30

**Q:** For O=C(NO)c1cc2c(s1)CN(C(=O)c1cccc(-n3cccn3)c1)CC2 , what is its reported pIC50?
**A:** > 7.30

**Q:** For O=C(NO)c1ccc2c(c1)CCN(S(=O)(=O)c1csc(-c3ccon3)c1)C2 , what is its reported pIC50?
**A:** 6.30 to 7.00

**Q:** For Cc1cc(C(=O)N(C)C)nc(N(CCCCCCC(=O)NO)c2nc(C)ns2)n1 , what is its reported pIC50?
**A:** ≥ 7.00

**Q:** For CN(C)c1cc(N(CCCCCCC(=O)NO)c2cnccn2)ncn1 , what is its reported pIC50?
**A:** ≥ 7.00

**Q:** For CCCNC(=O)N1CCc2cc(C(=O)NO)ccc2C1 , what is its reported pIC50?
**A:** 7.00 to 7.30

**Q:** For Cc1noc(C)c1C(=O)N1CCc2cc(C(=O)NO)sc2C1 , what is its reported pIC50?
**A:** > 7.30

**Q:** For CC(c1ccccc1)N1CCc2cc(C(=O)NO)ccc2C1 (stereo not shown) , what is its reported pIC50?
**A:** 6.30 to 7.00

**Q:** For COc1ccc(C(=O)N[C@H](C)c2cc(C(=O)NO)on2)cc1 , what is its reported pIC50?
**A:** < 6.30

**Q:** For CC(NC(=O)Nc1ccc(C(F)(F)F)cc1)c1ccc(C(=O)NO)s1 (stereo not shown) , what is its reported pIC50?
**A:** > 7.00

**Q:** For C[C@@H](NC(=O)c1cc2ccccc2s1)c1cc(C(=O)NO)on1 , what is its reported pIC50?
**A:** < 6.30

**Q:** For O=C(NO)c1ccc(Nc2ccc(C3(c4ccc(F)cc4)CCCO3)cc2)cc1 (stereo not shown) , what is its reported pIC50?
**A:** 7.30 to 8.00

**Q:** For O=C(NO)c1cnc(NC2(c3ccccc3)CCN(S(=O)(=O)c3ccc(C(F)(F)F)cc3)CC2)nc1 , what is its reported pIC50?
**A:** 8.14

**Q:** For O=C(CCCCCCN(c1cnccn1)c1ncncc1F)NO , what is its reported pIC50?
**A:** ≥ 7.00

**Q:** For O=C(NO)c1ccc2c(c1)CCN(Cc1nc(-c3ccc(Cl)cc3)no1)C2 , what is its reported pIC50?
**A:** 7.00 to 7.30

**Q:** For O=C(NO)c1ccc2ccn(CCOc3ccccc3Cl)c2c1 , what is its reported pIC50?
**A:** 5.00 to 6.00

**Q:** For Nc1ccc(-c2ccc(F)cc2)nc1NC(=O)c1ccc(N2CCC(N)CC2)nc1 , what is its reported pIC50?
**A:** 4.30 to 6.00

**Q:** For O=C(NO)c1cnc(NC2(c3c(F)cccc3F)CC2)c(F)c1 , what is its reported pIC50?
**A:** 9.37

**Q:** For Cc1c(C(=O)NO)sc2c1CN(C(=O)c1ccc(C(C)(C)C)cc1)CC2 , what is its reported pIC50?
**A:** 7.00 to 7.30

====

Values of pIC50 for Protein deacetylase HDAC6 (Homo sapiens), collected from a number of published sources:
pIC50: −log10 of the molar value.

**Q:** Hi! What's the reported pIC50 for COc1cc2cc(c1)C(=O)Nc1ccccc1NC(=O)[C@H](CCCCCC(=O)NO)OC/C=C\2 on Protein deacetylase HDAC6 (Homo sapiens)?
**A:** 7.23

**Q:** Hi! What's the reported pIC50 for O=C(NO)c1cnc2ccc(Nc3ccccc3)cc2c1 on Protein deacetylase HDAC6 (Homo sapiens)?
**A:** 6.30 to 7.00

**Q:** Hi! What's the reported pIC50 for C[C@@H](NC(=O)C1(C)CCCCC1)c1cc(C(=O)NO)on1 on Protein deacetylase HDAC6 (Homo sapiens)?
**A:** < 6.30

**Q:** Hi! What's the reported pIC50 for Cn1cccc1C(=O)N1CCCc2cc(C(=O)NO)ccc2C1 on Protein deacetylase HDAC6 (Homo sapiens)?
**A:** 6.30 to 7.00

**Q:** Hi! What's the reported pIC50 for O=C(NO)c1cc2c(s1)CN(C(=O)Cc1cc(F)cc(F)c1)CC2 on Protein deacetylase HDAC6 (Homo sapiens)?
**A:** 7.00 to 7.30

**Q:** Hi! What's the reported pIC50 for Cn1cc(-c2cc(C(=O)Nc3ccc4ncc(C(=O)NO)cc4c3)cc(C(F)(F)F)c2)cn1 on Protein deacetylase HDAC6 (Homo sapiens)?
**A:** > 7.00

**Q:** Hi! What's the reported pIC50 for O=C(NO)c1cc2c(s1)CN(C(=O)c1ccsc1)CC2 on Protein deacetylase HDAC6 (Homo sapiens)?
**A:** > 7.30

**Q:** Hi! What's the reported pIC50 for O=C(NO)c1ccc(Cn2ccc(C3(c4ccc(F)cc4)CCO3)cc2=O)cc1 (stereo not drawn) on Protein deacetylase HDAC6 (Homo sapiens)?
**A:** ≥ 8.00

**Q:** Hi! What's the reported pIC50 for CC(C)(C)C(=O)N1CCCc2cc(C(=O)NO)ccc2C1 on Protein deacetylase HDAC6 (Homo sapiens)?
**A:** 6.30 to 7.00

====

Values of pIC50 for Protein deacetylase HDAC6 (Homo sapiens, UniProt Q9UBN7), collected from a number of published sources:
pIC50: −log10 of the molar value.

**Q:** Hi! What's the reported pIC50 for CCC(C(=O)N1CCc2cc(C(=O)NO)sc2C1)(c1ccccc1)c1ccccc1 on Protein deacetylase HDAC6 (Homo sapiens, UniProt Q9UBN7)?
**A:** 7.00 to 7.30

**Q:** Hi! What's the reported pIC50 for O=C(NO)c1ccc2c(c1)CCN(C(=O)C1(c3ccc(Cl)cc3)CCC1)C2 on Protein deacetylase HDAC6 (Homo sapiens, UniProt Q9UBN7)?
**A:** > 7.30

**Q:** Hi! What's the reported pIC50 for Cc1ccc2[nH]c(C(=O)N3CCCc4cc(C(=O)NO)ccc4C3)cc2c1 on Protein deacetylase HDAC6 (Homo sapiens, UniProt Q9UBN7)?
**A:** > 7.30

**Q:** Hi! What's the reported pIC50 for CC[C@H](Nc1nc(N)nc(C)c1C#N)c1nc2cccc(N3CCC(CCC(=O)NO)CC3)c2c(=O)n1-c1ccccc1 on Protein deacetylase HDAC6 (Homo sapiens, UniProt Q9UBN7)?
**A:** > 7.00

**Q:** Hi! What's the reported pIC50 for Cc1nc(-c2ccccn2)sc1C(=O)N[C@H](C)c1cc(C(=O)NO)on1 on Protein deacetylase HDAC6 (Homo sapiens, UniProt Q9UBN7)?
**A:** < 6.30

**Q:** Hi! What's the reported pIC50 for COc1cccc(CC(=O)N2CCc3cc(C(=O)NO)ccc3C2)c1 on Protein deacetylase HDAC6 (Homo sapiens, UniProt Q9UBN7)?
**A:** 7.00 to 7.30

**Q:** Hi! What's the reported pIC50 for CC(NC(=O)Nc1cc(Cl)cc(Cl)c1)c1ccc(C(=O)NO)s1 (stereo not drawn) on Protein deacetylase HDAC6 (Homo sapiens, UniProt Q9UBN7)?
**A:** 6.30 to 7.00

**Q:** Hi! What's the reported pIC50 for O=C(/C=C/c1ccc(CNCC2CCCCC2)cc1)NO on Protein deacetylase HDAC6 (Homo sapiens, UniProt Q9UBN7)?
**A:** 8.01

**Q:** Hi! What's the reported pIC50 for Cc1ccoc1C(=O)N1CCc2cc(C(=O)NO)sc2C1 on Protein deacetylase HDAC6 (Homo sapiens, UniProt Q9UBN7)?
**A:** > 7.30

====

pIC50: −log10 of the molar value.
Values of pIC50 for Protein deacetylase HDAC6 (Homo sapiens, UniProt Q9UBN7), collected from a number of published sources:

**Q:** For Cc1ccccc1S(=O)(=O)NC(C)c1ccc(C(=O)NO)s1 (stereo not shown) , what is its reported pIC50?
**A:** 6.30 to 7.00

**Q:** For CC(NC(=O)Nc1ccc(Oc2ccccc2)cc1)c1ccc(C(=O)NO)s1 (stereo not shown) , what is its reported pIC50?
**A:** > 7.00

**Q:** For COc1ccc(C(=O)Nc2ccc3cc(C(=O)NO)cnc3c2)cc1 , what is its reported pIC50?
**A:** 6.30 to 7.00

**Q:** For O=C(NO)c1ccc2c(c1)CCN(C/C=C/c1ccccc1)C2 , what is its reported pIC50?
**A:** 6.30 to 7.00

**Q:** For O=C(NO)C1=CCN(S(=O)(=O)c2ccc(-c3ccc(O)cc3)cc2)CC1 , what is its reported pIC50?
**A:** > 7.00

**Q:** For O=C(NO)c1cc2c(s1)CN(C(=O)c1[nH]nc3c1CCCC3)CC2 , what is its reported pIC50?
**A:** > 7.30

**Q:** For CN(Cc1ccc(/C=C/C(=O)NO)cc1F)CC12CC3CC(CC(C3)C1)C2 , what is its reported pIC50?
**A:** 7.93

**Q:** For CCC(=O)CCCOC[C@H](NC(=O)c1cncs1)c1ncc(-c2cc3ccccc3nc2OC)[nH]1 , what is its reported pIC50?
**A:** < 4.35

**Q:** For CC(C)(C)OC(=O)Nc1ccc(-c2cc(C(=O)N3CCc4cc(C(=O)NO)ccc4C3)no2)cc1 , what is its reported pIC50?
**A:** 7.00 to 7.30

**Q:** For CC(NC(=O)c1cccn1C)c1ncc(C(=O)NO)s1 (stereo not shown) , what is its reported pIC50?
**A:** 6.30 to 7.00

**Q:** For CCC(Oc1ccccc1)C(=O)N1CCc2cc(C(=O)NO)sc2C1 (stereo not shown) , what is its reported pIC50?
**A:** > 7.30

**Q:** For CC1(C(=O)N2CCc3sc(C(=O)NO)cc3C2)CCCCC1 , what is its reported pIC50?
**A:** > 7.30

**Q:** For O=C(NO)c1ccc(Cn2cc(F)c(C3(c4ccc(F)cc4)CCCO3)cc2=O)cc1 (stereo not shown) , what is its reported pIC50?
**A:** ≥ 8.00

**Q:** For O=C(NO)c1cc2c(s1)CN(C(=O)Nc1ccc(-c3ccccc3)s1)CC2 , what is its reported pIC50?
**A:** > 7.30

**Q:** For O=C(NO)c1cc2c(s1)CN(C(=O)C13CC4CC(CC(C4)C1)C3)CC2 , what is its reported pIC50?
**A:** > 7.30

**Q:** For O=C(CCCCCCN(c1ccccn1)c1ccccn1)NO , what is its reported pIC50?
**A:** 8.05

**Q:** For CN1CCN(c2ccc(C(=O)Nc3nc(-c4cccs4)ccc3N)cn2)CC1 , what is its reported pIC50?
**A:** 4.30 to 6.00

**Q:** For CC(C)(C)C(=O)N1CCc2cc(C(=O)NO)ccc2C1 , what is its reported pIC50?
**A:** 7.00 to 7.30

**Q:** For Cc1oc(C(C)(C)C)cc1C(=O)N1CCc2cc(C(=O)NO)sc2C1 , what is its reported pIC50?
**A:** > 7.30
